# methodSummary: cytotoxicity in HPDE-C7 cells, cell-based, fluorescence, HTS (AID 430);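 note: cells exposed to compound for 48 hours before viability readout; 0% = vehicle and 100% = reference cytotoxic drug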
# conditionsUsed: HPDE-C7 pancreatic duct cells viability, at 10 µM, hits give high values
About 1,100 (1.7%) of roughly 63,000 compounds were called active. Shown is part of a subset that was picked to be rich in actives. Measured potencies and affinities stand elsewhere.
Items are presented alongside their recorded cytotoxicity.
readoutType: cytotoxicity

[
  {
    "molecule": "Cc1cccn2c(=O)c3cc(C(=O)NCCN4CCOCC4)c(=N)n(CCc4ccccc4)c3nc12",
    "observed": "4.4% (inactive)"
  },
  {
    "molecule": "c1ccc(-c2nc(-n3ccnc3)nc(-n3ccnc3)n2)cc1",
    "observed": "20.1% (inactive)"
  },
  {
    "molecule": "c1ccc(-c2nc(N3CCCCCC3)nc(-n3ccnc3)n2)cc1",
    "observed": "-19.9% (inactive)"
  },
  {
    "molecule": "CCCCCCNC(=O)C(C#N)c1nc2ccccc2nc1N1CCOCC1 (stereo unspecified)",
    "observed": "20.3% (inactive)"
  },
  {
    "molecule": "COCCn1c(=N)c(C(=O)NCCc2ccccc2)cc2c(=O)n3cccc(C)c3nc21",
    "observed": "-51.7% (inactive)"
  },
  {
    "molecule": "c1ccc(-c2nc(N3CCN(c4ccccc4)CC3)nc(-n3ccnc3)n2)cc1",
    "observed": "43% (inactive)"
  },
  {
    "molecule": "C=CCn1c(=O)c(C(=O)Nc2ccccc2O)c(O)c2ccccc21",
    "observed": "-18% (inactive)"
  },
  {
    "molecule": "COc1ccccc1Oc1cc(C#N)c(C#N)cc1-n1nnc2ccccc21",
    "observed": "-8.8% (inactive)"
  },
  {
    "molecule": "CCCCNC(=O)c1cc2c(=O)n3cccc(C)c3nc2n1C",
    "observed": "-12.6% (inactive)"
  },
  {
    "molecule": "c1ccc(-c2nc(NC3CC3)nc(-n3ccnc3)n2)cc1",
    "observed": "9.6% (inactive)"
  },
  {
    "molecule": "COc1ccc2nc(-c3ccccc3)[nH]c2c1",
    "observed": "-3.7% (inactive)"
  }
]

----------
# methodSummary: cytotoxicity in HPDE-C7 cells, cell-based, fluorescence, HTS (AID 430);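 note: cells exposed to compound for 48 hours before viability readout; 0% = vehicle and 100% = reference cytotoxic drug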
# conditionsUsed: HPDE-C7 pancreatic duct cells viability, at 10 µM
Screen size: about 63,000 compounds; about 1,100 (1.7%) were called active. Rule as the data show it: active = cytotoxicity above about 50%; inactive = the rest. Many of the other results were omitted from the sample, so actives are more common in it than they were. Results with a measured potency or affinity are listed apart.
Labels: active, inactive

[
  {
    "compound": "Cc1cccc(C)c1NC(=O)C(c1ccccc1)N1CCC2(CC1)OCCO2 (stereo unspecified)",
    "class": "inactive"
  },
  {
    "compound": "Cc1cc(C)n(-c2ccc(C(=O)Nc3ccccc3N3CCOCC3)cc2)n1",
    "class": "inactive"
  },
  {
    "compound": "O=C(NC1CCCc2ccccc21)C1CCN(S(=O)(=O)c2cccc3nonc23)CC1 (stereo unspecified)",
    "class": "inactive"
  },
  {
    "compound": "CC(=O)Nc1ccc(S(=O)(=O)N2CCSC2c2ccccc2Cl)cc1 (stereo unspecified)",
    "class": "inactive"
  },
  {
    "compound": "COc1cccc2c1C(=O)c1c(O)c3c(c(O)c1C2=O)C[C@@](O)(C(C)=O)C[C@@H]3O[C@H]1C[C@H](N)[C@H](O)[C@H](C)O1",
    "class": "active"
  },
  {
    "compound": "O=C1c2ccccc2-c2onc3ccc(NCc4ccco4)c1c23",
    "class": "active"
  }
]
